biological target: HLA-A*02:06; assay: IEDB peptide-MHC binding, purified MHC/competitive/radioactivity; filed as Kd, often an IC50 or EC50 that approximates it; bounds were set here for any values at or beyond the usual limits of such assays; conditions: source organism: Dengue virus 3 Martinique/1243/1999
Quick list: pKd per entry.
In simple prose, pKd is minus the logarithm base ten of a concentration in moles per litre.

FAGKTVWFV ... 7.40
WMTTEDMLTV ... 8.07
FMMVLLIPEP ... 6.91
VLLKTALLIV ... 7.43
VVIFILLMLV ... 6.01

Next item in the queue.
For "KAYAQMWSL" , what is its reported pKd? 7.57

---

target: HLA-A*23:01; assay: IEDB peptide-MHC binding, purified MHC/competitive/fluorescence; filed as Kd, often an IC50 or EC50 that approximates it; bounds were set here for any values at or beyond the usual limits of such assays; conditions: source organism: Shigella boydii CDC 3083-94
quantityMeasured: Kd

For "RNNDPTLPY" , what is its reported Kd? ≥ 20 µM

---

target: HLA-B*40:01; assay: IEDB peptide-MHC binding, purified MHC/competitive/radioactivity; filed as Kd, often an IC50 or EC50 that approximates it; bounds were set here for any values at or beyond the usual limits of such assays; conditions: source organism: Dengue virus 4 Philippines/H241/1956
Quick list: pKd per entry.
In simple prose, pKd is minus the logarithm base ten of a concentration in moles per litre.

Lab request: please report pKd under test system HLA-B*40:01 for "MEFIDGISLG" 6.86

Similarly, "IENTSANLSL" ? 7.46

Similarly, "TEIASLPTYL" ? 7.82

---

biological target: HLA-B*57:01; test: IEDB peptide-MHC binding, purified MHC/direct/fluorescence; filed as Kd, often an IC50 or EC50 that approximates it; bounds were set here for any values at or beyond the usual limits of such assays; conditions: source organism: Encephalitozoon cuniculi GB-M1
pKd: −log10 of the molar value.
quantityMeasured: pKd

For "MPFDPSELV" , what is its reported pKd? ≤ 4.70

---

molecular target: HLA-A*26:01; assay: IEDB peptide-MHC binding, purified MHC/competitive/fluorescence; filed as Kd, often an IC50 or EC50 that approximates it; bounds were set here for any values at or beyond the usual limits of such assays; conditions: source organism: Salmonella enterica subsp. enterica serovar Typhi
quantityMeasured: pKd
In simple prose, pKd is minus the logarithm base ten of a concentration in moles per litre.

Lab request: please report pKd under test system HLA-A*26:01 for "HVAAFSSLI" 7.24

---

molecular target: HLA-A*26:01; test: IEDB peptide-MHC binding, purified MHC/direct/fluorescence; filed as Kd, often an IC50 or EC50 that approximates it; bounds were set here for any values at or beyond the usual limits of such assays; settings: source organism: Mycobacterium tuberculosis variant bovis
quantityMeasured: pKd
In simple prose, pKd is minus the logarithm base ten of a concentration in moles per litre.

For "DFIGFGAAY" , what is its reported pKd? 8.49

---

biological target: HLA-B*15:01; assay: IEDB peptide-MHC binding, purified MHC/direct/fluorescence; filed as Kd, often an IC50 or EC50 that approximates it; bounds were set here for any values at or beyond the usual limits of such assays; settings: source organism: Encephalitozoon cuniculi GB-M1
quantityMeasured: Kd

For "MPFDPSELV" , what is its reported Kd? ≥ 20 µM

Every entry's value here was drawn from the Immune Epitope Database (IEDB).
